From: patent US20060257938A1

- assay.details: Probe fluorescence ratio response to linolenic acid relative to ADIFAB2
- Format: binding
- cond: response relative to ADIFAB2
Returns Met if the recorded DR/DR LNA is greater than or equal to 0.9, and Not met otherwise.

Asked: # bool: DR/DR LNA of 126V, 72A (protein, listed as Rattus norvegicus, PEPTIDE (1)...(131) wild-type rat intestinal fatty acid binding protein) AFDGTWKVDRNENYEKFMEKMGINVVKRKLGAHDNLKLTITQEGNKFTVKESSNFRNIDVVFELGVDFAYSAADGTELTGTWTMEGNKLVGKFKRVDNGKELIAVREISGNELIQTYTYEGVEAKVIFKKE >= 0.9
Given back: Not met

Asked: # bool: DR/DR LNA of 51Y1, 72A (protein, listed as Rattus norvegicus, PEPTIDE (1)...(131) wild-type rat intestinal fatty acid binding protein) AFDGTWKVDRNENYEKFMEKMGINVVKRKLGAHDNLKLTITQEGNKFTVKYSSNFRNIDVVFELGVDFAYSAADGTELTGTWTMEGNKLVGKFKRVDNGKELIAVREISGNELIQTYTYEGVEAKRIFKKE >= 0.9
Given back: Met

Asked: # bool: DR/DR LNA of 73P 72A 74F (protein, listed as Rattus norvegicus, PEPTIDE (1)...(131) wild-type rat intestinal fatty acid binding protein) AFDGTWKVDRNENYEKFMEKMGINVVKRKLGAHDNLKLTITQEGNKFTVKESSNFRNIDVVFELGVDFAYSAPFGTELTGTWTMEGNKLVGKFKRVDNGKELIAVREISGNELIQTYTYEGVEAKRIFKKE >= 0.9
Given back: Met

Asked: # bool: DR/DR LNA of 78A3, 72A (protein, listed as Rattus norvegicus, PEPTIDE (1)...(131) wild-type rat intestinal fatty acid binding protein) AFDGTWKVDRNENYEKFMEKMGINVVKRKLGAHDNLKLTITQEGNKFTVKESSNFRNIDVVFELGVDFAYSAADGTEATGTWTMEGNKLVGKFKRVDNGKELIAVREISGNELIQTYTYEGVEAKRIFKKE >= 0.9
Given back: Not met

Asked: # bool: DR/DR LNA of 106I3, 72A (protein, listed as Rattus norvegicus, PEPTIDE (1)...(131) wild-type rat intestinal fatty acid binding protein) AFDGTWKVDRNENYEKFMEKMGINVVKRKLGAHDNLKLTITQEGNKFTVKESSNFRNIDVVFELGVDFAYSAADGTELTGTWTMEGNKLVGKFKRVDNGKELIAVIEISGNELIQTYTYEGVEAKRIFKKE >= 0.9
Given back: Not met
